Value source: patent US12077503B2

Test system: barnyardgrass (Echinochloa crus-galli)
Experiment: Test G Pre-Emergence Protocol
Type: in vivo
Conditions: Echinochloa crus-galli, pre-emergence, 312 h, 15.625 g ai/ha, evaluated after 13 days, read-out: Barnyard grass damage rating (100=total damage to plant; 0=no damage to plant)
I'd be grateful if you could share measured pest or weed control at 15.625 g/ha for these entries.
Numbers only, in %.

# annotated cases, reported pest or weed control at 15.625 g/ha shown
- CN1C[C@@H](c2ccc(C(F)(F)F)cc2)[C@H](C(=O)Nc2cnccn2)C1=O (racemic): 0
- Cc1ccc(NC(=O)[C@H]2C(=O)N(C)C[C@@H]2c2ccc(C(F)(F)F)cc2)nc1 (racemic): 0
- Cc1ncsc1NC(=O)[C@@H]1C(=O)N(C)C[C@H]1c1ccc(C(F)(F)F)cc1 (racemic): 0

Need pest or weed control at 15.625 g/ha for each of these compounds.
1. CN1C[C@@H](c2ccc(C(F)(F)F)cc2)[C@H](C(=O)Nc2ccn(C)n2)C1=O (racemic)
2. Cc1cnc(NC(=O)[C@@H]2C(=O)N(C)C[C@H]2c2ccc(C(F)(F)F)cc2)s1 (racemic)
3. CN1C[C@H](c2ccc3occc3c2)[C@@H](C(=O)Nc2cccc(F)c2F)C1=O (racemic)
4. CN1C[C@@H](c2ccc(C(F)(F)F)cc2)[C@H](C(=O)Nc2ccc(F)c(Cl)c2F)C1=O (racemic)
5. CN1C[C@@H](c2cc(Cl)cc(C(F)(F)F)c2)[C@H](C(=O)Nc2ccccc2F)C1=O (racemic)
6. COc1cc(NC(=O)[C@@H]2C(=O)N(C)C[C@H]2c2ccc(C(F)(F)F)cc2)ccn1 (racemic)

1: 0; 2: 0; 3: 30; 4: 10; 5: 20; 6: 0

----------
Test system: ragweed (common ragweed, Ambrosia elatior)
Experiment: Test A preemergence
Assay type: in vivo
Conditions: Ambrosia artemisiifolia, pre-emergence, 240 h, 125 g ai/ha, preemergence; visual injury rating, 0 to 100 scale where 0 is no effect and 100 is complete control; approximately 10 d; read-out: Ragweed plant response rating
Observation type: pest or weed control at 125 g/ha

- Cc1nc([C@H]2CN(C)C(=O)[C@@H]2C(=O)Nc2cccc(F)c2F)cs1 [Compound 1281]: 0%
- O=C1NC[C@H](c2cccc(C(F)(F)F)c2)C1C(=O)Nc1c(F)cccc1CO (some centres unmarked) [Compound 1240]: 0%
- CN1C[C@H](c2ccc(C#N)c(F)c2)[C@@H](C(=O)Nc2cccc(F)c2F)C1=O [Compound 1192]: 0%
- O=C(Nc1cccc(F)c1F)[C@H]1C(=O)N(CC(F)F)C[C@@H]1c1cccc(C(F)(F)F)c1 [Compound 1296]: 0%

Field: pest or weed control at 125 g/ha. Fill in for each record below.
1. Cc1ccc([C@H]2CN(C)C(=O)[C@@H]2C(=O)Nc2cccc(F)c2C)cc1 [Compound 1186]
2. O=C1NC[C@H](c2cccc(C(F)(F)F)c2)C1C(=O)Nc1ccccc1CO (some centres unmarked) [Compound 1244]
3. O=C(Nc1ccccc1F)[C@H]1C(=O)N(CC(F)F)C[C@@H]1c1cccc(C(F)(F)F)c1 [Compound 1295]
4. COc1cc([C@H]2CN(C)C(=O)[C@@H]2C(=O)Nc2cccc(F)c2C)ccc1F [Compound 1300]
5. Cc1cc([C@H]2CN(C)C(=O)[C@@H]2C(=O)Nc2ccccc2F)on1 [Compound 1195]
6. CN1C[C@H](c2ccc(F)c(C#N)c2)[C@@H](C(=O)Nc2cccc(F)c2F)C1=O [Compound 1255]
7. COc1ccc([C@H]2CN(C)C(=O)[C@@H]2C(=O)Nc2cccc(F)c2F)c(OC)c1 [Compound 1209]

1. 60%
2. 0%
3. 0%
4. 0%
5. 0%
6. 20%
7. 60%

----------
For each record, write down the corresponding plant injury at 62.5 g/ha.
Tested on: corn (Zea mays)
Experiment: Test G Post-Emergence Protocol
Format: in vivo
Conditions: Zea mays, post-emergence, 312 h, 62.5 g ai/ha, evaluated after 13 days, 100=total damage to plant, 0=no damage to plant, read-out: Corn damage rating
From the text: Seeds of corn (Zea mays), giant foxtail (Setaria faberi), barnyardgrass (Echinochloa crus-galli), ivy-leaved morning glory (Ipomoea hederacea), redroot pigweed (Amaranthus retroflexus) and velvetleaf (Abutilon theophrasti) were sown in standard soil in pots. […]
One number for each entry, in %.

• CN1C[C@H](c2cccc(C(F)(F)F)c2)[C@@H](C(=O)Nc2cnccc2S(C)(=O)=O)C1=O (racemic) = 0
• CN1CC(c2cc(C#N)cc(OC(F)(F)F)c2)C(C(=O)Nc2cccc(F)c2F)C1=O (stereo not drawn) = 0
• CN1C[C@H](c2cccc(C(F)(F)F)c2)[C@@H](C(=O)Nc2cccc3c2S(=O)(=O)CC3)C1=O (racemic) = 0

Items follow; give plant injury at 62.5 g/ha for each.
1. CN1C[C@H](c2ccnc(C(C)(C)C)n2)[C@@H](C(=O)Nc2ccc(F)c(F)c2F)C1=O (racemic)
2. Cc1ccc([C@H]2CN(C)C(=O)[C@@H]2C(=O)Nc2cccc3c2S(=O)(=O)CC3)cc1 (racemic)

1. 0
2. 0

Dear colleague, could you send me plant injury at 62.5 g/ha for each of the items below? Thanks.
1. CN1C[C@H](c2ccc(C(F)(F)F)cc2)[C@@H](C(=O)Nc2cnccc2[N+](=O)[O-])C1=O (racemic)
2. CN1C[C@H](c2ccc(C(F)(F)F)cc2)[C@@H](C(=O)Nc2cc(C#N)ccn2)C1=O (racemic)
3. CN1C[C@H](c2ccc(C(F)F)cc2)[C@@H](C(=O)Nc2cccc(F)c2F)C1=O (racemic)
4. CN1C[C@H](c2ccc(F)c(C#N)c2)[C@@H](C(=O)Nc2ccccc2S(C)(=O)=O)C1=O (racemic)
5. CN1C[C@H](c2cccc(C(F)(F)F)c2)[C@@H](C(=O)Nc2cccnc2F)C1=O (racemic)
6. Cc1cc(C#N)cc(C2CN(C)C(=O)C2C(=O)Nc2cccc(F)c2F)c1 (stereo not drawn)
7. CON1C[C@H](c2ccc(C(F)(F)F)cc2)[C@@H](C(=O)Nc2cccc(F)c2F)C1=O (racemic)

1: 0; 2: 0; 3: 60; 4: 0; 5: 80; 6: 0; 7: 10

Field: plant injury at 62.5 g/ha. Fill in for each record below.
1. CN1CCC(NC(=O)[C@H]2C(=O)N(C)C[C@@H]2c2ccc(C(F)(F)F)cc2)C1=O (mixture of isomers)
2. C=C(C)c1ccccc1NC(=O)[C@H]1C(=O)N(C)C[C@@H]1c1cccc(C(F)(F)F)c1 (racemic)

1. 0
2. 0

Parameters: items (list). Returns: plant injury at 62.5 g/ha for each item.
1. CN1C[C@@H](c2ccc(C(F)(F)F)cc2)[C@H](C(=O)Nc2cscn2)C1=O (racemic)
2. CN1CC(c2cc(F)c(Cl)c(F)c2)C(C(=O)Nc2cccc(F)c2F)C1=O (stereo not drawn)
3. CCOc1ccc(C2CN(C)C(=O)C2C(=O)Nc2cccc(F)c2F)cc1OCC (stereo not drawn)
4. CN1C[C@H](c2cccc(C(F)(F)F)c2)[C@@H](C(=O)Nc2cc(O)ccc2F)C1=O (racemic)

0
0
10
0

----------
Test system: ryegrass, Italian (Italian ryegrass, Lolium multiflorum)
Assay: Test A postemergence
Assay type: in vivo
Settings: Lolium multiflorum, post-emergence, 240 h, 500 g ai/ha, postemergence; 0 to 100 scale, 0 is no effect, 100 is complete control; read-out: Ryegrass, Italian plant response rating
Would you kindly list pest or weed control at 500 g/ha for each of these molecules?
Answers are plain numbers, in %.

• CCc1cc([C@H]2CN(C)C(=O)[C@@H]2C(=O)Nc2cccc(F)c2F)cs1 [Compound 1157] = 40
• CN1CC[C@H](c2cccc(C(F)(F)F)c2)[C@@H](C(=O)Nc2cccc(F)c2Cl)C1=O [Compound 1158] = 50
• CN1C[C@H](c2csc3ccccc23)[C@@H](C(=O)Nc2ccccc2F)C1=O [Compound 1114] = 40

Please find the next molecule below.
# input molecule: Cc1c(F)cccc1NC(=O)[C@H]1C(=O)N(C)C[C@@H]1c1cc(F)cc(F)c1 [Compound 1140] ; wanted: its pest or weed control at 500 g/ha
70

----------
Tested on: redroot pigweed (Amaranthus retroflexus)
Experiment: Test G Post-Emergence Protocol
Format: in vivo
Settings: Amaranthus retroflexus, post-emergence, 312 h, 250 g ai/ha, evaluated after 13 days, 100=total damage to plant, 0=no damage to plant, read-out: Pigweed, Redroot damage rating
Observation type: pest or weed control at 250 g/ha (%)
Answers are plain numbers, in %.

* CN1C[C@H](c2ccc(C(F)F)cc2)[C@@H](C(=O)Nc2cccc(F)c2F)C1=O (racemic) | 80

Record pest or weed control at 250 g/ha for all entries; do not skip any.
1. COC(=O)c1cc([C@H]2CN(C)C(=O)[C@@H]2C(=O)Nc2cccc(F)c2F)ccc1C (racemic)
2. CN1C[C@H](c2ccc(C(F)(F)F)cc2)[C@@H](C(=O)Nc2cccc3ccsc23)C1=O (racemic)
3. CN1C[C@H](c2cccc(C(F)(F)F)c2)[C@@H](C(=O)Nc2cnccc2S(C)(=O)=O)C1=O (racemic)

40
0
20

List the reported pest or weed control at 250 g/ha of each molecule below.
1. CN1C[C@H](c2cccc(C(F)(F)F)c2)[C@@H](C(=O)Nc2cc(O)ccc2F)C1=O (racemic)
2. CN1C[C@H](c2cccc(C(F)(F)F)c2)[C@@H](C(=O)Nc2cccnc2F)C1=O (racemic)
3. C=Cc1cccc([C@@H]2CN(C)C(=O)[C@H]2C(=O)Nc2cccc(F)c2F)c1 (racemic)
4. CN1CC(c2ccc(F)c(OCC(F)(F)F)c2)C(C(=O)Nc2cccc(F)c2F)C1=O (stereo not shown)
5. CC(C)S(=O)(=O)c1ccccc1NC(=O)[C@H]1C(=O)N(C)C[C@@H]1c1ccc(C(F)(F)F)cc1 (racemic)
6. Cc1ccc([C@H]2CN(C)C(=O)[C@@H]2C(=O)Nc2ccc3cccnc3n2)cc1 (racemic)
7. Cc1c(F)cccc1NC(=O)[C@@H]1C(=O)N(C)C[C@H]1c1ccc2nonc2c1 (racemic)

[0, 50, 10, 70, 40, 0, 0]

Kindly give each listed record's pest or weed control at 250 g/ha.
1. CN1C[C@H](c2ccc(Cl)cc2)[C@@H](C(=O)Nc2cnccc2C(F)(F)F)C1=O
2. CN1C[C@@H](c2ccc(CF)cc2)[C@H](C(=O)Nc2cccc(F)c2F)C1=O (racemic)

1: 50; 2: 30
